# testSummary: The half-life period was evaluated for the loss of 1 mol of phenol at the pH 7.5 in the presence of Tris buffer
# Assay type: ADME
Exercise: state measured half-life for each of the compounds provided.
Returns: string containing the numeric result and its unit.

C[C@H](NP(=O)(CCc1ccccc1)Oc1ccccc1)C(=O)N1CCC[C@H]1C(=O)O (stereo partly drawn) | 21 days
C[C@H](NP(=O)(Oc1ccc([N+](=O)[O-])cc1)Oc1ccc([N+](=O)[O-])cc1)C(=O)N1CCC[C@H]1C(=O)O | 0.142 days

Now look at this one.
Exercise: What value of half-life has been reported for the following compound? `C[C@H](NP(=O)(Oc1ccccc1)Oc1ccccc1)C(=O)N1CCC[C@H]1C(=O)O`
Key: 22 days
